Every entry's value here was drawn from patent EP4659811A1.

- Test Target: VP1 capsid protein on BKV pseudovirions of genotype II (GBR-12; AB263920) (BK virus genotype II (GBR-12))
- Test Protocol: cell-based or functional assay
Outcome Measure: Neutralization PSV IC50 (mg/L)
Give bare numbers, in mg/L.

[[record]]
binder = "antibody E7P5 (antibody, V domains shown) VH: QVQLQESGPGLVKPSETLSLTCTVSGGSIRNSYWSWIRQSPGKGLEWIGYIYYTGSTNSNPSLKSRLTVSVHMSQNQISLKLNSVTPADTAVYYCAQGGGSGDLHYWGQGTLVTVSS VL: QSALTQPASVSGSPGQSITISCTGTRSDVGGYNYVSWYQQHPGKAPKLIIYDISSRPSGVSNRFSASKSGNTASLTISGLQAEDEADYYCISFATGYTWVFGGGTSLTVL"
endpoint_result = 0.0002


API: the following record is the query input.
I would be grateful if you could share the reported Neutralization PSV IC50 for antibody B9P4 (antibody, V domains shown) VH: EVQLVESGGGVVQPGRSLRLSCAASGFTFSSYGMHWVRQAPGKGLEWVAVISKDGSNKYEADFVKGRFTISRDNSKNTLYLQMNSLRAEDTAVYYCAKIPLRRYSDSGDYSSGDFWGQGTLVTVSS VL: DVVMTQSPLSLTVTLGQPASISCRSSENLVYSDGNTYLSWFQQRPGQSPRRLIYKVSTRDSGVPDRFSGSGSGTDFTLKISRVEAEDVGVYYCMQTTHWPPLTFGGGTKVEIK .
16.3
